assay system: Tyrosine-protein kinase Tec (Homo sapiens) (UniProt P42680);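 note: each value is the mean of the inhibition measurements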
Sequence (P42680 whole entry): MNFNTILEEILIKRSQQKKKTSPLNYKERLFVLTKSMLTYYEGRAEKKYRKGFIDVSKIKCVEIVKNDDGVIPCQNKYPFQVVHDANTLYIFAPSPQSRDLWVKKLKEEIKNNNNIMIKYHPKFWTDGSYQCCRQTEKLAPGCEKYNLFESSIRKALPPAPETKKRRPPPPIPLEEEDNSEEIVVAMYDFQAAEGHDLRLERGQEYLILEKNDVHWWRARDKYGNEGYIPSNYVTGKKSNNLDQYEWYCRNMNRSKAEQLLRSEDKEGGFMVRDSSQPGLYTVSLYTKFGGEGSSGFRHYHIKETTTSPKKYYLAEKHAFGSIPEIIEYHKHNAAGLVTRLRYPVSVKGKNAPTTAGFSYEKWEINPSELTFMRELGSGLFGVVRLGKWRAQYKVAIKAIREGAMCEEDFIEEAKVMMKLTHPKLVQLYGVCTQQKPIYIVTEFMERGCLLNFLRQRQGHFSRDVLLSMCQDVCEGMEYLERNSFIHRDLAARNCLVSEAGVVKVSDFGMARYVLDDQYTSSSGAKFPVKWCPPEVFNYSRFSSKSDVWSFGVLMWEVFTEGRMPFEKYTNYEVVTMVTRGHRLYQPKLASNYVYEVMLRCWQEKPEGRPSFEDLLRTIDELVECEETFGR
experimental setup: at 1 µM
In this section we review reported inhibition values for a set of molecules.

{"columns": ["cpd smiles", "inhibition, %"],
 "data": [
  ["CCCNc1cccc(-n2ncc3c(N/N=C/c4ccncc4)ncnc32)c1", 7.76],
  ["O=C1Nc2ccccc2/C1=C1\\CCc2cc(O)ccc21", 10.2],
  ["CNC(=O)c1sc(-n2cnc3cc(OC)c(OC)cc32)cc1OCc1ccccc1C(F)(F)F", 9.64],
  ["Cc1ccc(-c2cc3c(NC(=O)C4CC4)ncnc3o2)cc1", 13.1],
  ["CN(C)CCNC(=O)Nc1ccc(N(C)c2ccnc(Nc3ccc(CS(C)(=O)=O)cc3)n2)cc1", 14.7],
  ["FC(F)(F)CNc1nccc(-c2cnn3ncccc23)n1", 2.62],
  ["CS(=O)(=O)CCNCc1ccoc1-c1ccc2ncnc(Nc3ccc(OCc4ccccc4)cc3)c2c1", 3.04],
  ["Cc1cc(O)cc(C)c1/C=C/c1cncc(C(N)=O)c1", 32.2],
  ["N#Cc1cccc(Nc2ncc(-c3ccccc3)o2)c1", 2.29],
  ["COc1cc(N2CCN(C(C)C)CC2)ccc1Nc1nc(Nc2cccc3ncccc23)c2cc[nH]c2n1", -0.14],
  ["COc1ccc(-c2nn3ncccc3c2-c2ccnc(Nc3ccc(F)c(F)c3)n2)cc1", 7.67],
  ["c1cnn2ncc(-c3ccnc(NCCCN4CCOCC4)n3)c2c1", 3.12],
  ["CS(=O)(=O)CCNCc1ccc(-c2ccc3ncnc(Nc4ccc(OCc5ccccc5)cc4)c3c2)o1", 7.43],
  ["CNC(=O)c1cncc(/C=C/c2ccccc2C)c1", 16.4],
  ["O=C(O[C@H]1CN[C@H](C#Cc2cc3ncnc(Nc4ccc(OCc5cccc(F)c5)c(Cl)c4)c3s2)C1)N1CCOCC1", 4.41],
  ["COc1cc(N2CCN(C(C)C)CC2)ccc1Nc1nc(Nc2cccc(F)c2C(=O)O)c2cc[nH]c2n1", 5.87],
  ["COc1ccc2ncn(-c3cc(O[C@H](C)c4ccccc4C(F)(F)F)c(C(N)=O)s3)c2c1", -0.18],
  ["OCCCNc1nccc(-c2c(-c3ccc(F)cc3)nn3cc(C(F)(F)F)ccc23)n1", 5.41],
  ["CS(=O)(=O)Nc1ccc(-c2cc(-c3ccccc3)cc(C(N)=O)c2N)cc1", 1.3]
]}

---

In this section we review reported inhibition values for a set of molecules.
assay system: CDK3/Cyclin E (Homo sapiens) (UniProt P24864+Q00526);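 note: reported percentages are mean inhibition values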
Sequence (P24864 whole entry, looked up): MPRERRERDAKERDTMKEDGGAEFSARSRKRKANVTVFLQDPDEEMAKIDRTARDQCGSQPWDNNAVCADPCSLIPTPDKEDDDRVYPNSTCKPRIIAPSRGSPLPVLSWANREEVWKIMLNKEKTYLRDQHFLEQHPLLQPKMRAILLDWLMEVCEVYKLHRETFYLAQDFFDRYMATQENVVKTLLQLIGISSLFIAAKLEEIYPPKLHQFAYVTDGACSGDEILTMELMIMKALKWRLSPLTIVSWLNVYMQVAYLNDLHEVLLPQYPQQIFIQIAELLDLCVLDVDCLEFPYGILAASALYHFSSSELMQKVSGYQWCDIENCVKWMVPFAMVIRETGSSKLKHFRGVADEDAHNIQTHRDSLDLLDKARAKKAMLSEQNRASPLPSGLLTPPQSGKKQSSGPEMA
Sequence (Q00526 whole entry, looked up): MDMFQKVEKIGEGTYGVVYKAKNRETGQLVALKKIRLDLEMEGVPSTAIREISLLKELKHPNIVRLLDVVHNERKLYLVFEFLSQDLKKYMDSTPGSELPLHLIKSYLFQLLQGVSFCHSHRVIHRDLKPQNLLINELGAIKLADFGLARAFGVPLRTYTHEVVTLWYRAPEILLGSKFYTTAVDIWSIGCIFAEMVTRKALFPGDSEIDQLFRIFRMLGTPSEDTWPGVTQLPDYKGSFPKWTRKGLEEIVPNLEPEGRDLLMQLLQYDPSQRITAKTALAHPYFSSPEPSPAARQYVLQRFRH
experimental setup: at 0.1 µM
measured parameter: inhibition (%)

{"columns": ["molecule", "measured parameter", "reported result"],
 "data": [
  ["CCOc1ccc2c(-c3ccnc(Nc4cc(OC)cc(C(F)(F)F)c4)n3)cnn2n1", "inhibition", 3.56],
  ["CC1=C(C(=O)Nc2ccc3[nH]ncc3c2)C(c2ccc(F)cc2)N=C(c2ccc(C(F)(F)F)nc2)N1 (centres undefined)", "inhibition", 0.12],
  ["O=C(O[C@H]1CN[C@H](C#Cc2cc3ncnc(Nc4ccc5c(cnn5Cc5ccccc5)c4)c3s2)C1)N1CCOCC1", "inhibition", -0.1],
  ["COC(=O)Nc1nc2ccc(Oc3ccc(NC(=O)Nc4cc(C(F)(F)F)ccc4F)cc3)cc2s1", "inhibition", 0.88],
  ["NC(=O)c1ccc2c(-c3ccnc(NCCCO)n3)c(-c3ccc(F)cc3)nn2c1", "inhibition", 2.38],
  ["CS(=O)(=O)Nc1ccc(-c2ccc3c(NC(=O)C4CC4)n[nH]c3c2)cc1", "inhibition", 0.71],
  ["COc1c(C(N)=O)cc(-c2ccc(Cl)cc2)cc1-c1ccc(S(N)(=O)=O)cc1", "inhibition", -4.73],
  ["COC(=O)Nc1nc2cc(Oc3ccc(NC(=O)Nc4ccccc4)cc3)ccc2[nH]1", "inhibition", 2.16],
  ["CS(=O)(=O)CCNCc1ccoc1-c1ccc2ncnc(Nc3ccc(OCc4ccccc4)cc3)c2c1", "inhibition", -1.56],
  ["COc1ccccc1-c1cc(/C=C2\\C(=O)Nc3ncc(Br)cc32)cc(Br)c1O", "inhibition", 5.76],
  ["CC1=C(C(=O)Nc2ccc3[nH]nc(C)c3c2)C(c2ccc(C(F)(F)F)cc2)CC(=O)N1 (centres undefined)", "inhibition", 0.4],
  ["NS(=O)(=O)c1cccc(N/C=C2\\C(=O)Nc3ccccc32)c1", "inhibition", 4.56],
  ["COc1cc2c(cc1Nc1nc(Nc3cccc(F)c3C(N)=O)c3cc[nH]c3n1)N(C(=O)CN1CCN(C(C)C)CC1)CC2", "inhibition", -1.81],
  ["CCS(=O)(=O)c1ccc(OC)c(Nc2ncc(-c3cccc(F)c3)o2)c1", "inhibition", -0.92],
  ["Cc1ccc(-c2cc3c(NC(=O)C4CC4)ncnc3o2)cc1", "inhibition", 1.4],
  ["COc1ccc(Nc2ncc(-c3ccccc3)o2)cc1OC", "inhibition", 6.29],
  ["CS(=O)(=O)Nc1ccc(-c2cc(-c3ccccc3)cc(C(N)=O)c2N)cc1", "inhibition", -0.04],
  ["CN(c1ccc(NC(=O)NCCN2CCOCC2)cc1)c1ccnc(Nc2ccc(CS(C)(=O)=O)cc2)n1", "inhibition", 0.76],
  ["O=C(Nc1n[nH]c2nnc(-c3cccnc3)cc12)C1CC1", "inhibition", 35.9]
]}

---

assay system: Misshapen-like kinase 1 (Homo sapiens) (UniProt Q8N4C8);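 note: mean inhibition value reported, from GSK PKIS kinase profiling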
Sequence (Q8N4C8 whole entry, looked up): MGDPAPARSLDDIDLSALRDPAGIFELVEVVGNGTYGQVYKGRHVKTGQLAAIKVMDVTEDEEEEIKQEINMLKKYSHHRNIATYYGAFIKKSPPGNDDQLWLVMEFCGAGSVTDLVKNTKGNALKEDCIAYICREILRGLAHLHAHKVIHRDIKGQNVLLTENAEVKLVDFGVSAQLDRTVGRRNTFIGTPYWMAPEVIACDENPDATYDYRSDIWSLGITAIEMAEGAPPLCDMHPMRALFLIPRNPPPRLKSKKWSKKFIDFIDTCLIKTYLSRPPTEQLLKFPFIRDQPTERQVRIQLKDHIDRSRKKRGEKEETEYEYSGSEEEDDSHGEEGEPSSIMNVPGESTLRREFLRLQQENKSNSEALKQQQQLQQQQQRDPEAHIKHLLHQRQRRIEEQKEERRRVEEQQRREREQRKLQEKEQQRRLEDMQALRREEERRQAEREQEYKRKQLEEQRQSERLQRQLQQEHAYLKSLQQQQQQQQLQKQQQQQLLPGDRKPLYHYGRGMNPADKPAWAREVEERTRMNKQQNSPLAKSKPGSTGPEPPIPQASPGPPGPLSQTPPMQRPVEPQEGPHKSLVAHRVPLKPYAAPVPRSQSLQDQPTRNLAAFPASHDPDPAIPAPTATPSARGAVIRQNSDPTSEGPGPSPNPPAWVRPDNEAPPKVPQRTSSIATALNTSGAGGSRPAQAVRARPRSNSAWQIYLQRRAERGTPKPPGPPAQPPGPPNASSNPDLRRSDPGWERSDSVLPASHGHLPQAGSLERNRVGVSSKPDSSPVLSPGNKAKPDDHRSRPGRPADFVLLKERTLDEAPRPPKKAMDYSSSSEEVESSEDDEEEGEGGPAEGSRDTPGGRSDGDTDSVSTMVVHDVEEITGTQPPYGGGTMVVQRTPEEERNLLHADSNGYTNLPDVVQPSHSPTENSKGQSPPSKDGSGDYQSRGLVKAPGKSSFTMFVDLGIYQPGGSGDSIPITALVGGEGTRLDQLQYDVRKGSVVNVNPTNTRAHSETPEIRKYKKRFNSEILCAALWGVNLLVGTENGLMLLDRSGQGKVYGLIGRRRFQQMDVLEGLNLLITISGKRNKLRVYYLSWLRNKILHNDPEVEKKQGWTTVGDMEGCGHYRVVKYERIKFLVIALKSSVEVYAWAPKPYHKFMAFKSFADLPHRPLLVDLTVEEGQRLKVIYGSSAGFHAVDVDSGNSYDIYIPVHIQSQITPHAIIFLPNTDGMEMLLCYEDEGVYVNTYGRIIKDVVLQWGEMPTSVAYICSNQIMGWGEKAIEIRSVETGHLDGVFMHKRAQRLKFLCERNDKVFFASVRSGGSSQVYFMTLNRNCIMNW
experimental setup: at 0.1 µM
Where inhibition equals or exceeds 6%, the correct label is t; where it does not, the label is f.

{"columns": ["cpd smiles", "category"],
 "data": [
  ["CS(=O)(=O)Nc1ccc(-c2ccc3c(NC(=O)C4CC4)n[nH]c3c2)cc1", "t"],
  ["CN1CCC(n2cnc(-c3ccc(F)cc3)c2-c2ccnc(NCCO)n2)CC1", "t"],
  ["Cc1c2ccc(N(C)c3ccnc(Nc4cccc(S(N)(=O)=O)c4)n3)cc2nn1C", "t"],
  ["COc1cc2c(cc1Nc1nc(Nc3cccc(F)c3C(N)=O)c3cc[nH]c3n1)N(C(=O)CN1CCN(C(C)C)CC1)CC2", "f"],
  ["O=C(Nc1n[nH]c2nnc(-c3cccnc3)cc12)C1CC1", "f"],
  ["COc1ccccc1-c1cc(/C=C2\\C(=O)Nc3ncc(Br)cc32)cc(Br)c1O", "f"],
  ["OCCCNc1nccc(-c2c(-c3ccc(F)cc3)nn3cc(C(F)(F)F)ccc23)n1", "f"],
  ["CCn1c(-c2nonc2N)nc2cncc(C(=O)NCCNC)c21", "t"],
  ["NS(=O)(=O)c1ccc(N/N=C2\\C(=O)Nc3ccc(C(=O)NCc4ccncc4)cc32)cc1", "t"],
  ["Fc1cccc(COc2ccc(Nc3ncncc3C#Cc3ccccc3)cc2Cl)c1", "t"]
]}

---

assay system: Mitogen-activated protein kinase 13 (Homo sapiens);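 note: reported value is the mean percent inhibition of p38delta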
experimental setup: at 0.1 µM
In this section we review reported inhibition values for a set of compounds.

{"columns": ["cpd smiles", "inhibition [%]"],
 "data": [
  ["Cc1nnc(-c2cccc(-c3ccc(C(=O)NCC4CC4)cc3)c2)o1", 3.76],
  ["COc1cc(N2CCN(C(C)C)CC2)ccc1Nc1nc(Nc2cccc3ncccc23)c2cc[nH]c2n1", -1.75],
  ["CN(c1ccc(NC(=O)NCCN2CCOCC2)cc1)c1ccnc(Nc2ccc(CS(C)(=O)=O)cc2)n1", 1.11],
  ["O=C(Nc1n[nH]c2nnc(-c3cccnc3)cc12)C1CC1", -0.07],
  ["NS(=O)(=O)c1ccc(N/N=C2\\C(=O)Nc3cccc(CCc4ccncc4)c32)cc1", 0.17],
  ["COc1ccccc1-c1cc(/C=C2\\C(=O)Nc3ncc(Br)cc32)cc(Br)c1O", 0.15],
  ["CCn1c(-c2nonc2N)nc2cncc(C(=O)NCCNC)c21", 5.75],
  ["CCCNc1cccc(-n2ncc3c(N/N=C/c4ccncc4)ncnc32)c1", 0.94]
]}

---

In this section we review reported inhibition values for a set of molecules.
assay system: Serine/threonine-protein kinase SIK1 (Homo sapiens);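 note: reported as mean inhibition, part of the GSK PKIS screen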
experimental setup: at 0.1 µM

{"columns": ["molecule", "inhibition [%]"],
 "data": [
  ["FC(F)(F)CNc1nccc(-c2cnn3ncccc23)n1", 2.46],
  ["CC1(C)CC(n2cnc(-c3ccc(F)cc3)c2-c2ccnc(N)n2)CC(C)(C)N1", 0.72],
  ["NS(=O)(=O)c1ccc(N/N=C2\\C(=O)Nc3cccc(CCc4ccncc4)c32)cc1", 1.17],
  ["O=C1Nc2ccccc2/C1=C1\\CCc2cc(O)ccc21", 2.74],
  ["O=C(O[C@H]1CN[C@H](C#Cc2cc3ncnc(Nc4ccc5c(ccn5Cc5cc(F)ccc5F)c4)c3s2)C1)N1CCOCC1", 5.35],
  ["CN(C)CCNC(=O)Nc1ccc(N(C)c2ccnc(Nc3ccc(CS(C)(=O)=O)cc3)n2)cc1", 5.41],
  ["COC(=O)Nc1nc2ccc(Oc3ccc(NC(=O)Nc4cc(C(F)(F)F)ccc4F)cc3)cc2s1", -0.78],
  ["COc1c(C(N)=O)cc(-c2ccc(Cl)cc2)cc1-c1ccc(S(N)(=O)=O)cc1", 10.7],
  ["COc1ccc(-c2nn3ncccc3c2-c2ccnc(Nc3ccc(F)c(F)c3)n2)cc1", 1.5],
  ["COc1cc(N2CCN(C(C)C)CC2)ccc1Nc1nc(Nc2cccc3ncccc23)c2cc[nH]c2n1", -2.95],
  ["CNC(=O)c1cncc(/C=C/c2ccccc2C)c1", 10],
  ["Fc1cccc(COc2ccc(Nc3ncncc3C#Cc3ccccc3)cc2Cl)c1", 3.74],
  ["c1cnn2ncc(-c3ccnc(NCCCN4CCOCC4)n3)c2c1", 3.47],
  ["COc1cccc(-n2ncc3c(N/N=C/c4ccc(C(=O)NCCN(C)C)cc4)ncnc32)c1", 18.3],
  ["CC1=C(C(=O)Nc2ccc3[nH]nc(C)c3c2)C(c2ccc(C(F)(F)F)cc2)CC(=O)N1 (stereo not given)", 0.72],
  ["COC(=O)Nc1nc2cc(Oc3ccc(NC(=O)Nc4ccccc4)cc3)ccc2[nH]1", 1.17],
  ["COc1ccccc1-c1cc(/C=C2\\C(=O)Nc3ncc(Br)cc32)cc(Br)c1O", 3.09],
  ["COc1cc(N2CCN(C(C)C)CC2)ccc1Nc1nc(Nc2cccc(F)c2C(=O)O)c2cc[nH]c2n1", 2.77],
  ["CS(=O)(=O)CCNCc1ccc(-c2ccc3ncnc(Nc4ccc(OCc5cccc(C(F)(F)F)c5)cc4)c3c2)o1", 1.69],
  ["Cc1ccc(-c2cc3c(NC(=O)C4CC4)ncnc3o2)cc1", 6.5]
]}
